Value source: patent US20210246204A1

# tgt: T1, histidine-tagged human Siglec-7 (NovoProtein) (human, UniProt Q9Y286 19-353)
# T1 construct: Bought protein; also called recombinant human Siglec-7; recombinant Siglec-7; not shown: histidine tag
# assayText: BLI, antibody captured
propertyLabel: kon (M⁻¹ s⁻¹)
Write the number in M⁻¹ s⁻¹ without appending the unit.

Some binders with recorded kon:
>  <binder>
S7AB-H8.7 (antibody, V domains shown) VH: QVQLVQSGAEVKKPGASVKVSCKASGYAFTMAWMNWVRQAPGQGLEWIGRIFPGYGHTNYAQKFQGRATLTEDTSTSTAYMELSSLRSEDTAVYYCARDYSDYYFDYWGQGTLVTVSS VL: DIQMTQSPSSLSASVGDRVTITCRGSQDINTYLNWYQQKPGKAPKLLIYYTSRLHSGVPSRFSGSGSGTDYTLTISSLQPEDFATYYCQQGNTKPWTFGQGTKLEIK

>  <unitsOfMeasure>
M⁻¹ s⁻¹

>  <kon>
67600

$$$$
>  <binder>
S7AB-H8.29 (antibody, V domains shown) VH: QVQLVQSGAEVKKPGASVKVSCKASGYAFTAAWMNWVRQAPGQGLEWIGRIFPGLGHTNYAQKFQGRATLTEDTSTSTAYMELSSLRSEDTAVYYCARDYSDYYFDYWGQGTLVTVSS VL: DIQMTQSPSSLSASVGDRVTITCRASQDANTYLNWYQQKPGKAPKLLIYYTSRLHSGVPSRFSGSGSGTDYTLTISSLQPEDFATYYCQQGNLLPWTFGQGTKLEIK

>  <unitsOfMeasure>
M⁻¹ s⁻¹

>  <kon>
152000

$$$$

Quick one: give measured kon for S7AB-H8.4 (antibody, V domains shown) VH: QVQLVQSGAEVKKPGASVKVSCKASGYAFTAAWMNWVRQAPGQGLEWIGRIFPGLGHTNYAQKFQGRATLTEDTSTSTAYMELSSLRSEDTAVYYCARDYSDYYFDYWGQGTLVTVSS VL: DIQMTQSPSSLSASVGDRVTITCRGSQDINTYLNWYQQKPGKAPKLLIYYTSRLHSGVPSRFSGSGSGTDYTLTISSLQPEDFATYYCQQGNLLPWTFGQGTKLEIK
147000
